TARGET_DESC: T1, CEACAM1 antigen (Sino Biological, Inc.) (UniProt P13688 35-428)
T1 construct: Bought antigen, coated on the ELISA plate; construct not described; also called CEACAM1 (CD66a) antigen; CD66a
T1 sequence (looked up): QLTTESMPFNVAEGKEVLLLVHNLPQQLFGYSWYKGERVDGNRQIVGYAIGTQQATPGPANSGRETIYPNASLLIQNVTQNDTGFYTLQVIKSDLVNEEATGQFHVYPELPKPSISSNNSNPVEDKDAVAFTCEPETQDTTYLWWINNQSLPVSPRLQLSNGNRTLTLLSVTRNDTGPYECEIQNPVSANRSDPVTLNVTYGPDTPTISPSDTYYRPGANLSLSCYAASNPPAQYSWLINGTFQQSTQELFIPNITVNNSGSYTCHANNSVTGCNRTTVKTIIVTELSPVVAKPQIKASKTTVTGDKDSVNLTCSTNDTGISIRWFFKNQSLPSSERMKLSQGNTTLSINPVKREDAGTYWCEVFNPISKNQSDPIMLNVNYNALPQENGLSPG
ASSAY_TEXT: ELISA, CEACAM1 coated 100 ng/well, antibody at 123.46 ng/ml
MEASURED_PARAMETER: OD 450 nm (OD 450 nm)
State just the number; it will be interpreted in OD 450 nm.

- BINDER: "recombinant humanized anti-CD66c antibody Protein ID 3043 (Vk8 + VH6) (antibody, V domains shown, also called hu 3043; #71) VH: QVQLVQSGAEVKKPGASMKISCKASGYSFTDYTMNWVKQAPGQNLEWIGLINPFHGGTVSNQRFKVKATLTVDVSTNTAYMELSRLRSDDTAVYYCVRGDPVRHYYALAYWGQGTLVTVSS VL: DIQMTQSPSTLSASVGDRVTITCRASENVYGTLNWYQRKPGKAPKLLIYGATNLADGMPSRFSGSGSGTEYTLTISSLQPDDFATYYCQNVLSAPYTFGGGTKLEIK"
  OD 450 nm [OD 450 nm]: 0.7
- BINDER: "recombinant humanized anti-CD66c antibody Protein ID 3007 (Vk7 + VH6) (antibody, human IgG1, V domains shown, also called hu 3007; #43) VH: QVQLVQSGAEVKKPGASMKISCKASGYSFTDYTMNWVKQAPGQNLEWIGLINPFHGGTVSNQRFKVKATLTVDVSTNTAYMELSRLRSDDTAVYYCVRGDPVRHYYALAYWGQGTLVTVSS VL: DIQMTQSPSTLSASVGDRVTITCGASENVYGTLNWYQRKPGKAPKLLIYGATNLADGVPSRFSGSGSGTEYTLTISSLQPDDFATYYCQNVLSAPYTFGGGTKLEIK"
  OD 450 nm [OD 450 nm]: 0.82

Reported OD 450 nm of recombinant humanized anti-CD66c antibody Protein ID 3058 (Vk8 + VH11) (antibody, human IgG1, V domains shown, also called hu 3058; #86) VH: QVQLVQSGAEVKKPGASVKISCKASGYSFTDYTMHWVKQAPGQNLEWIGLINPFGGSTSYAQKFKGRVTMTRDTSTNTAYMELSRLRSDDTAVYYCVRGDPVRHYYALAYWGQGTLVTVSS VL: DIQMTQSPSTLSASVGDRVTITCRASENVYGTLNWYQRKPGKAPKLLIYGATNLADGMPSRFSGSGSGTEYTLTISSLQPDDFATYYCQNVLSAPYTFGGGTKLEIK : 0.07

Memo: anti-CD66c chimeric antibody 8F5 (antibody, human IgG1, V domains shown, also called chimeric 8F5; chi 8F5) VH: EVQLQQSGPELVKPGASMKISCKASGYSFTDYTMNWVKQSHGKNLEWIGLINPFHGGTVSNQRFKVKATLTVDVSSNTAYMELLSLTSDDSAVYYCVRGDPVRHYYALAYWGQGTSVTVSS VL: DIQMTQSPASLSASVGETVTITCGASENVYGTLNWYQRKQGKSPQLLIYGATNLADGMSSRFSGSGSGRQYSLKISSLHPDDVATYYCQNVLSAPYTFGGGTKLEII , reported OD 450 nm: 0.95
